experiment.notes: NCI Yeast Anticancer Drug Screen. Data for the sgs1 mgt1 strain (AID 161)
setup.conditions: S. cerevisiae sgs1 mgt1 strain, at 50.0 µM (retest, dose inferred, filed as 5.0)
The panel holds about 79,000 compounds, 15% with a hit somewhere; the sample as a whole holds those more often. Activity calls are given as the source filed them. No stated cut-off is given here; in the data, active means growth inhibition above about 70%; inactive means the rest.
Possible outcomes: active, inactive

| compound | label.value |
| --- | --- |
| Cc1cccc(N2CCN(CC(O)COc3ccc4ccccc4c3)CC2)c1 (centres undefined) | inactive |
| CCCC/C=C\CCCCCCCCCC1=C(O)C(=O)C=C(OC)C1=O | active |
| Cc1cc(Oc2nc(Cl)nc(C(Cl)(Cl)Cl)c2Cl)cc(C)c1N(C)C (tested in a mixture with another compound) | inactive |
| CCN(CC)Cc1cc(Nc2c3ccccc3nc3c2[nH]c2ccccc23)ccc1O | inactive |
| O=C1C=CC(=O)N1c1ccccc1[N+](=O)[O-] | active |
| CCN(CC)CCCC(C)Nc1c2ccccc2nc2c(C)cc(Br)cc12 (centres undefined) | active |
| O=C(O)c1ccccc1-c1c2cc([N+](=O)[O-])c(=O)c(Br)c-2oc2c(Br)c(O)c([N+](=O)[O-])cc12 | inactive |
| CN(C(=O)c1ccc(Cl)cc1)C(=S)N1CCN(c2ccccc2)CC1 | active |
| C(=NCCc1ccccc1)c1ccccc1B1OB(c2ccccc2C=NCCc2ccccc2)OB(c2ccccc2C=NCCc2ccccc2)O1 | active |

These measurements were taken from PubChem BioAssay (NCI).
